Reference source: the supplement of paper PMC10883282

tested on: MES-SA; test: relative viability vs DMSO control (72 h) (fraction); higher = more viable cells; details: 1.111 µM
Recorded relative viability, one value per entry.
Give a plain numeric answer without units written out.

INSERT INTO results (smiles_representation, test_result) VALUES
  ('CN1CCN(c2ccc(C(=O)Nc3n[nH]c4ccc(Cc5cc(F)cc(F)c5)cc34)c(NC3CCOCC3)c2)CC1', 0.821),
  ('Cn1cc(C2=C(c3cn(C4CCN(Cc5ccccn5)CC4)c4ccccc34)C(=O)NC2=O)c2ccccc21', 0.952),
  ('CNC(=O)c1nnc(NC(=O)C2CC2)cc1Nc1cccc(-c2ncn(C)n2)c1OC', 0.923),
  ('O=C(Nc1nc2cccc(-c3ccc(CN4CCS(=O)(=O)CC4)cc3)n2n1)C1CC1', 0.94),
  ('Cc1cc2c(F)c(Oc3ncnn4cc(OC[C@@H](C)O)c(C)c34)ccc2[nH]1', 0.934);

Prompt line: Return reported relative viability; argument: COc1cc(Nc2ncc(F)c(Nc3ccc4c(n3)N(COP(=O)(O)O)C(=O)C(C)(C)O4)n2)cc(OC)c1OC
Response line: 0.861

Prompt line: Return reported relative viability; argument: CC1(COc2ccc3c(c2)ncn3-c2ccc3cccc(N4CCC(N)CC4)c3n2)COC1
Response line: 1.03

Prompt line: Return reported relative viability; argument: CC[C@@H]1CN(C(=O)NCC(F)(F)F)C[C@@H]1c1cnc2cnc3[nH]ccc3n12
Response line: 0.885

Prompt line: Return reported relative viability; argument: N#CCNC(=O)c1ccc(-c2ccnc(Nc3ccc(N4CCOCC4)cc3)n2)cc1
Response line: 0.685

Prompt line: Return reported relative viability; argument: O=S(=O)(c1cccc2cnccc12)N1CCCNCC1
Response line: 0.987

====

tested on: HS729; assay: relative viability vs DMSO control (72 h) (fraction); higher = more viable cells; conditions: 1.111 µM
observable: relative viability
Give a plain numeric answer without units written out.

Prompt line: Value wanted: relative viability (HS729) of entry O=c1sn(-c2cccc3ccccc23)c(=O)n1Cc1ccccc1
Response line: 0.908

====

system: KHOS-240S; experiment: relative viability vs DMSO control (72 h) (fraction); higher = more viable cells; conditions: 3.333 µM
observable: relative viability
Give a plain numeric answer without units written out.

Prompt line: Return reported relative viability; argument: CC1(C)CC=C(c2nc(C3CC(C)(C)OC(C)(C)C3)ccc2NC(=O)c2nc(C#N)c[nH]2)CC1 [Edicotinib]
Response line: 1.06

Prompt line: Return reported relative viability; argument: O=S(=O)(c1cccc2cnccc12)N1CCCNCC1 [Fasudil]
Response line: 0.942

Prompt line: Return reported relative viability; argument: CN1CCN(c2ccc(C(=O)Nc3n[nH]c4ccc(Cc5cc(F)cc(F)c5)cc34)c(NC3CCOCC3)c2)CC1 [Entrectinib]
Response line: 0.617

Prompt line: Return reported relative viability; argument: C[C@]12O[C@H](C[C@]1(O)CO)n1c3ccccc3c3c4c(c5c6ccccc6n2c5c31)CNC4=O [Lestaurtinib]
Response line: 0.169

====

system: HT1080; assay: relative viability vs DMSO control (72 h) (fraction); higher = more viable cells; conditions: 0.01372 µM
Recorded relative viability, one value per entry.
Give a plain numeric answer without units written out.

Prompt line: Return reported relative viability; argument: CC(C)NC[C@@H](C(=O)N1CCN(c2ncnc3c2[C@H](C)C[C@H]3O)CC1)c1ccc(Cl)cc1
Response line: 1.07

Prompt line: Return reported relative viability; argument: O=S(=O)(c1cccc2cnccc12)N1CCCNCC1
Response line: 1.04

Prompt line: Return reported relative viability; argument: CN1CC[C@@H](NC(=O)Nc2ccc(C#N)cc2)C[C@@H]1c1nc2ccccc2[nH]1
Response line: 1.09

Prompt line: Return reported relative viability; argument: N#CC1(c2ccc(NC(=O)c3cccnc3NCc3ccncc3)cc2)CCCC1
Response line: 1.07

Prompt line: Return reported relative viability; argument: O=C1NC(=O)[C@@H](c2cn3c4c(cccc24)CCC3)[C@@H]1c1c[nH]c2ccccc12 [Tivantinib]
Response line: 1.01
